- protocolText: method code SF, from DOI: 10.1016/0378-5173(91)90120-d
resultType: logP
Give a plain numeric answer without units written out.

Request: Would you mind telling me what logP value was observed for `Cc1cccc(Nc2ccccc2C(=O)O)c1C` ?
Result: 4.38

###

- protocolText: method code SF-AS, from DOI: 10.1021/acs.jmedchem.5b01455, PMID: 26523333
- reportedConditions: pH 7.4
resultType: logD
Give a plain numeric answer without units written out.

molecule	logD
FCC(F)Cc1c[nH]c2ccccc12 (configuration not stated)	2.54

Pending molecule:
Request: Would you mind telling me what logD value was observed for `CC(F)(F)Cc1c[nH]c2ccccc12` ?
Result: 3.3
